# tested target: H. contortus L-AChR1.4 (UNC-63, UNC-38, ACR-8, UNC-29.4) (Haemonchus contortus, UniProt A9XX24+D6MYF2+D6MYF3+D6MYF4)
# test summary: cell-based
Counter-ions that a name gives are not always drawn.
assay metric: pEC50
pEC50 (log units): -log10 of the concentration in mol/L.

Give the value of pEC50 reported for the following: c1ccc([C@H]2CN3CCSC3=N2)cc1 [LEV, (-)-tetramisole hydrochloride] 5.61

----------
# tested target: H. contortus L-AChR1.1 with added UNC-29.2 (Haemonchus contortus, UniProt A9XX24+D6MYE9+D6MYF3+D6MYF4)
# test summary: Two-electrode voltage clamp of L-AChR1.1 supplemented with unc-29.2 cRNA in Xenopus oocytes
# Type: cell-based
# cond: 29.1 : 29.2 cRNA 1 : 0.2
Structures can show the parent of a compound that is named as a salt.
assay metric: EC50 (µM)
Write it as a number; the unit µM goes unstated.

Give the value of EC50 reported for the following: c1ccc([C@H]2CN3CCSC3=N2)cc1 [LEV, (-)-tetramisole hydrochloride] 3.05

Values compiled from paper PMC4945070.
